Values compiled from paper PMC7774954.

# Test system: 266 human PDZ domains (PDZome)
# Assay remarks: Holdup assay (chromatographic retention, PDZome-binding profile, BI)
# Set-up: key: binding intensity: 0.00 = no binding, 1.00 = maximal binding
# Condition context: PDZ domain SNTG1-1
Quantity measured: BI
Answers are plain numbers.

Which value of BI has been reported for CC[C@H](C)[C@H](NC(=O)[C@H](CCC(N)=O)NC(=O)[C@@H](NC(=O)[C@H](Cc1c[nH]cn1)NC(=O)[C@H](CCC(N)=O)NC(=O)[C@H](CC(=O)O)NC(=O)[C@H](CCC(=O)O)NC(=O)[C@H](CC(=O)O)NC(=O)CCC(=O)NCCCOCCOCCOCCCNC(=O)CCCC[C@@H]1SC[C@@H]2NC(=O)N[C@@H]21)[C@@H](C)O)C(=O)N[C@H](C(=O)N[C@@H](CCCCN)C(=O)N[C@H](C(=O)O)C(C)C)[C@@H](C)O [PTEN_11] in the records?
0.078

----------
# System: 266 human PDZ domains (PDZome)
# Assay remarks: Holdup assay (chromatographic retention, PDZome-binding profile, BI)
# Design: key: binding intensity: 0.00 = no binding, 1.00 = maximal binding
# Condition context: PDZ domain MPDZ-2
*1 amine or outer side, *2 acyl side, *3 side chain or, on linkers, in order; H or OH if unused. Where a SMILES comes first, the peptide text is derived from it. The star is where a group is joined. X1 = O=C(CCCC[C@@H]1SC[C@@H]2NC(=O)N[C@@H]21)NCCCOCCOCCOCCCN*; Suc = O=C(CCC(=O)[*:2])[*:1]
Quantity measured: BI
Give bare numbers.

Look at this compound and give its reported BI. CC[C@H](C)[C@H](NC(=O)[C@H](CCC(N)=O)NC(=O)[C@@H](NC(=O)[C@H](Cc1c[nH]cn1)NC(=O)[C@H](CCC(N)=O)NC(=O)[C@H](CC(=O)O)NC(=O)[C@H](CCC(=O)O)NC(=O)[C@H](CC(=O)O)NC(=O)[C@H](Cc1ccccc1)NC(=O)[C@@H]1CCCN1C(=O)CCC(=O)NCCCOCCOCCOCCCNC(=O)CCCC[C@@H]1SC[C@@H]2NC(=O)N[C@@H]21)[C@@H](C)O)C(=O)N[C@H](C(=O)N[C@@H](CCCCN)C(=O)N[C@H](C(=O)O)C(C)C)[C@@H](C)O [PTEN_13] ({X1-Suc}-PFDEDQHTQITKV-OH)
0.095

----------
Field: BI. Provide a value for each of the compounds that follow.
# System: FRMPD2-1
# Assay remarks: Holdup assay, FRMPD2-1
# Format: binding, human
*1 amine or outer side, *2 acyl side, *3 side chain or, on linkers, in order; H or OH if unused. Where a SMILES comes first, the peptide text is derived from it. The star is where a group is joined. X1 = O=C(CCCC[C@@H]1SC[C@@H]2NC(=O)N[C@@H]21)NCCCOCCOCCOCCCN*; Suc = O=C(CCC(=O)[*:2])[*:1]
One number for each entry.

>>> measured_value("CC[C@H](C)[C@H](NC(=O)[C@H](CCC(N)=O)NC(=O)[C@@H](NC(=O)[C@H](Cc1c[nH]cn1)NC(=O)[C@H](CCC(N)=O)NC(=O)[C@H](CC(=O)O)NC(=O)[C@H](CCC(=O)O)NC(=O)[C@H](CC(=O)O)NC(=O)[C@H](Cc1ccccc1)NC(=O)[C@@H]1CCCN1C(=O)CCC(=O)NCCCOCCOCCOCCCNC(=O)CCCC[C@@H]1SC[C@@H]2NC(=O)N[C@@H]21)[C@@H](C)O)C(=O)N[C@H](C(=O)N[C@@H](CCCCN)C(=O)N[C@H](C(=O)O)C(C)C)[C@@H](C)O [PTEN_13] ({X1-Suc}-PFDEDQHTQITKV-OH)")
-0.07
>>> measured_value("CC[C@H](C)[C@H](NC(=O)[C@H](CCC(N)=O)NC(=O)[C@@H](NC(=O)[C@H](Cc1c[nH]cn1)NC(=O)[C@H](CCC(N)=O)NC(=O)[C@H](CC(=O)O)NC(=O)[C@H](CCC(=O)O)NC(=O)[C@H](CC(=O)O)NC(=O)CCC(=O)NCCCOCCOCCOCCCNC(=O)CCCC[C@@H]1SC[C@@H]2NC(=O)N[C@@H]21)[C@@H](C)O)C(=O)N[C@H](C(=O)N[C@@H](CCCCN)C(=O)N[C@H](C(=O)O)C(C)C)[C@@H](C)O")
-0.044

Give BI for each listed item.
1. CC[C@H](C)[C@H](NC(=O)[C@H](CCC(N)=O)NC(=O)[C@@H](NC(=O)[C@H](Cc1c[nH]cn1)NC(=O)[C@H](CCC(N)=O)NC(=O)[C@H](CC(=O)O)NC(=O)[C@H](CCC(=O)O)NC(=O)[C@H](CC(=O)O)NC(=O)CCC(=O)NCCCOCCOCCOCCCNC(=O)CCCC[C@@H]1SC[C@@H]2NC(=O)N[C@@H]21)[C@@H](C)O)C(=O)N[C@H](C(=O)N[C@@H](CCCCNC(C)=O)C(=O)N[C@H](C(=O)O)C(C)C)[C@@H](C)O
2. CC[C@H](C)[C@H](NC(=O)[C@H](CCC(N)=O)NC(=O)[C@@H](NC(=O)[C@H](Cc1c[nH]cn1)NC(=O)[C@H](CCC(N)=O)NC(=O)[C@H](CC(=O)O)NC(=O)[C@H](CCC(=O)O)NC(=O)[C@H](CC(=O)O)NC(=O)CCC(=O)NCCCOCCOCCOCCCNC(=O)CCCC[C@@H]1SC[C@@H]2NC(=O)N[C@@H]21)[C@@H](C)O)C(=O)N[C@H](C(=O)N[C@@H](CCCNC(=N)N)C(=O)N[C@H](C(=O)O)C(C)C)[C@@H](C)O [PTEN_KR] ({X1-Suc}-DEDQHTQITRV-OH)

1. -0.083
2. -0.015

----------
# System: 266 human PDZ domains (PDZome)
# Assay remarks: Holdup assay (chromatographic retention, PDZome-binding profile, BI)
# Design: key: binding intensity: 0.00 = no binding, 1.00 = maximal binding
# Condition context: PDZ domain NHERF3-3
*1 amine or outer side, *2 acyl side, *3 side chain or, on linkers, in order; H or OH if unused. Where a SMILES comes first, the peptide text is derived from it. The star is where a group is joined. X1 = O=C(CCCC[C@@H]1SC[C@@H]2NC(=O)N[C@@H]21)NCCCOCCOCCOCCCN*; Suc = O=C(CCC(=O)[*:2])[*:1]
I'd appreciate it if you could supply BI values for the items below.
One number for each entry.

>>> measured_value("CC[C@H](C)[C@H](NC(=O)[C@H](CCC(N)=O)NC(=O)[C@@H](NC(=O)[C@H](Cc1c[nH]cn1)NC(=O)[C@H](CCC(N)=O)NC(=O)[C@H](CC(=O)O)NC(=O)[C@H](CCC(=O)O)NC(=O)[C@H](CC(=O)O)NC(=O)[C@H](Cc1ccccc1)NC(=O)[C@@H]1CCCN1C(=O)CCC(=O)NCCCOCCOCCOCCCNC(=O)CCCC[C@@H]1SC[C@@H]2NC(=O)N[C@@H]21)[C@@H](C)O)C(=O)N[C@H](C(=O)N[C@@H](CCCCN)C(=O)N[C@H](C(=O)O)C(C)C)[C@@H](C)O [PTEN_13] ({X1-Suc}-PFDEDQHTQITKV-OH)")
0.068
>>> measured_value("CC[C@H](C)[C@H](NC(=O)[C@H](CCC(N)=O)NC(=O)[C@@H](NC(=O)[C@H](Cc1c[nH]cn1)NC(=O)[C@H](CCC(N)=O)NC(=O)[C@H](CC(=O)O)NC(=O)[C@H](CCC(=O)O)NC(=O)[C@H](CC(=O)O)NC(=O)CCC(=O)NCCCOCCOCCOCCCNC(=O)CCCC[C@@H]1SC[C@@H]2NC(=O)N[C@@H]21)[C@@H](C)O)C(=O)N[C@H](C(=O)N[C@@H](CCCCNC(C)=O)C(=O)N[C@H](C(=O)O)C(C)C)[C@@H](C)O [PTEN_Ac]")
0.021
>>> measured_value("CC[C@H](C)[C@H](NC(=O)[C@H](CCC(N)=O)NC(=O)[C@@H](NC(=O)[C@H](Cc1c[nH]cn1)NC(=O)[C@H](CCC(N)=O)NC(=O)[C@H](CC(=O)O)NC(=O)[C@H](CCC(=O)O)NC(=O)[C@H](CC(=O)O)NC(=O)CCC(=O)NCCCOCCOCCOCCCNC(=O)CCCC[C@@H]1SC[C@@H]2NC(=O)N[C@@H]21)[C@@H](C)O)C(=O)N[C@H](C(=O)N[C@@H](CCCCN)C(=O)N[C@H](C(=O)O)C(C)C)[C@@H](C)O [PTEN_11]")
0.131

Now for the compound whose BI we want.
Consider the compound shown here: CC[C@H](C)[C@H](NC(=O)[C@H](CCC(N)=O)NC(=O)[C@@H](NC(=O)[C@H](Cc1c[nH]cn1)NC(=O)[C@H](CCC(N)=O)NC(=O)[C@H](CC(=O)O)NC(=O)[C@H](CCC(=O)O)NC(=O)[C@H](CC(=O)O)NC(=O)CCC(=O)NCCCOCCOCCOCCCNC(=O)CCCC[C@@H]1SC[C@@H]2NC(=O)N[C@@H]21)[C@@H](C)O)C(=O)N[C@H](C(=O)N[C@@H](CCCNC(=N)N)C(=O)N[C@H](C(=O)O)C(C)C)[C@@H](C)O [PTEN_KR] ({X1-Suc}-DEDQHTQITRV-OH) What is its recorded BI?
0.185
